B1: library; numbered along this chain (parent)
chain: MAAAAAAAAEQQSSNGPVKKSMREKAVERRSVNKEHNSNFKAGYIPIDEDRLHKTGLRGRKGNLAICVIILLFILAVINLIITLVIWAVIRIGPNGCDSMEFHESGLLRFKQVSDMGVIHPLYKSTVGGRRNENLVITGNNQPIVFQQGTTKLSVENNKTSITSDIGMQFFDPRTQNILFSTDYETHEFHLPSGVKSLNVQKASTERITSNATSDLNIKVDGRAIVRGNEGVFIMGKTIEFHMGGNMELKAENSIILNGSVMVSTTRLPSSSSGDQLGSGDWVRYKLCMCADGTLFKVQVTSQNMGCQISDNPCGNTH

# Variants of: B1
# experiment description: SGCB cell-surface expression functional score (HA stain, bin4 vs bin1, normalised to synonymous) (log10 ratio); higher = more cell-surface SGCB (functional)
Mark Fulfilled for reported SGCB cell-surface expression functional score (log10) of -0.5 or greater; mark Not fulfilled for anything smaller.

{"columns": ["variant descriptor", "class name"],
 "data": [
  ["H190S", "Fulfilled"],
  ["G59A", "Not fulfilled"],
  ["L135F", "Fulfilled"],
  ["K159D", "Not fulfilled"],
  ["P269T", "Fulfilled"],
  ["I255A", "Fulfilled"],
  ["C290P", "Not fulfilled"],
  ["R207V", "Not fulfilled"],
  ["I78R", "Not fulfilled"],
  ["E240G", "Fulfilled"],
  ["F170N", "Not fulfilled"],
  ["F170C", "Fulfilled"],
  ["V136A", "Fulfilled"],
  ["Q148L", "Fulfilled"],
  ["D98K", "Fulfilled"],
  ["M116N", "Not fulfilled"],
  ["A9S", "Fulfilled"],
  ["K159R", "Fulfilled"],
  ["G62F", "Fulfilled"],
  ["V77H", "Fulfilled"],
  ["V232I", "Fulfilled"],
  ["N37G", "Fulfilled"]
]}
